# system-name: Kv11.1 (hERG) (Homo sapiens (Human))
# Sequence (Q12809 whole entry): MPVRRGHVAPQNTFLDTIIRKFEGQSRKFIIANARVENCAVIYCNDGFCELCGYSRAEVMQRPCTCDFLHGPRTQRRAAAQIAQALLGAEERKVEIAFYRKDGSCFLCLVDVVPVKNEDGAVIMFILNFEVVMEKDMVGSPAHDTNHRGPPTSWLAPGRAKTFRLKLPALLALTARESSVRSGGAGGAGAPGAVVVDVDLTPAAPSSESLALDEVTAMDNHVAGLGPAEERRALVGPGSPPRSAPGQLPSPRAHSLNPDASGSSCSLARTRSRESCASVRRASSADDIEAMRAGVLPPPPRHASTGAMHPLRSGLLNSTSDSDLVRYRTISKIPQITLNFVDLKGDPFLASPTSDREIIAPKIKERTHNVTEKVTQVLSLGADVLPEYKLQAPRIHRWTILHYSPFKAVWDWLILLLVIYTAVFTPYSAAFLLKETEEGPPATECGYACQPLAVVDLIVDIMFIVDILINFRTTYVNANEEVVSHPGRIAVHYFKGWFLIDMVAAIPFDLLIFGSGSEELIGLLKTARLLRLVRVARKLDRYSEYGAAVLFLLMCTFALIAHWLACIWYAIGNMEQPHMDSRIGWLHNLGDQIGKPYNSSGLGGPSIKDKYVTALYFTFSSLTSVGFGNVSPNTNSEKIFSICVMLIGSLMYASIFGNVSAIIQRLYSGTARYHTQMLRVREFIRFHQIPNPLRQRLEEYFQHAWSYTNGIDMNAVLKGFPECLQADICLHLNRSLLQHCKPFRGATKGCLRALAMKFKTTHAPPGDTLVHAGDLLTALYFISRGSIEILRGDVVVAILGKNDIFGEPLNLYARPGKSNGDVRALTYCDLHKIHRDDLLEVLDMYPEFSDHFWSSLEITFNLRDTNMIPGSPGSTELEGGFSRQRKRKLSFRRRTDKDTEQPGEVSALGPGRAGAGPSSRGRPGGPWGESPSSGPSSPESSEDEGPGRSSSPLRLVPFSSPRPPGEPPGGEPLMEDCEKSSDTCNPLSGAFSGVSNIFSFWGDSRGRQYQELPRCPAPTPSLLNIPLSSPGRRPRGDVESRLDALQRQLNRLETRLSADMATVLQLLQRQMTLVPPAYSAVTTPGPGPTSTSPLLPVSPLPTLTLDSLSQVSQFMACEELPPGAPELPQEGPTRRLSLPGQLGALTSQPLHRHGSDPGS
# assay: Kv11.1 (hERG) ion channel activity (patch clamp assay), HEK293 cells transfected with hERG gene
# condition-label: read-out: Ki [Kv1.11 hERG]; patch clamp, HEK293 transfected with hERG gene
pKi: −log10 of the molar value.
assay-readout: pKi

Looking up CN(C)CCOc1ccc(C(O)c2ccc(F)c(-c3ncnc4cc(N5CCOCC5)ccc34)c2)nn1 (stereo not drawn) [Example 133] , I see its pKi listed as < 4.60

// field: pKi; key: COc1ccc([C@@H](O)c2cc(-c3ncnc4cc(N5CCOCC5)ccc34)c(F)cc2Cl)nn1 [Example 136] ; value = < 4.60

Reported pKi of OC(c1ccc2nccn2n1)c1cc(-c2ncnc3cc(N4CCOCC4)ccc23)c(F)cc1F (single isomer, unassigned) [Example 20] : < 4.60

pKi in this record for OC(c1ccc(F)c(-c2ncnc3cc(N4CCOCC4)ccc23)c1)c1cccnn1 (stereo not drawn) [Example 65] : < 4.60

Entry COc1ccc(C(O)c2cc(-c3ncnc4cc(N5CCOCC5)ccc34)c(F)cc2F)c(F)c1 (stereo not drawn) [Example 124] — recorded pKi = > 5.00

Per the record, COC(=O)c1ccc(C(O)c2cc(-c3ncnc4cc(N5CCOCC5)ccc34)c(F)cc2Cl)nn1 (stereo not drawn) [Example 58] has pKi of < 4.60

# pKi of COc1ccc(C(OC)c2ccc(F)c(-c3ncnc4cc(N5CCOCC5)ccc34)c2)nn1 (stereo not drawn) [Example 73] = < 4.60

Memo: COc1cnc(C(O)c2ccc(F)c(-c3ncnc4cc(N5CCOCC5)ccc34)c2)nc1 (stereo not drawn) [Example 67] , reported pKi: < 4.60

pKi reported for this compound OC(c1ccc(F)c(-c2ncnc3cc(N4CCOCC4)ccc23)c1)c1nccnc1N1CCCC1 (stereo not drawn) [Example 14] : < 4.60

Record OC(c1ccc(F)c(-c2ncnc3cc(N4CCOCC4)sc23)c1)c1nccnc1Cl (single isomer, unassigned) [Example 23] . Reported pKi: < 4.60

COc1ccc(C(O)(c2cc(-c3ncnc4cc(N5CCOCC5)ccc34)c(F)cc2Cl)C(F)F)nn1 (stereo not drawn) [Example 123] yielded pKi of < 4.60

According to the records, this compound COc1cnc(Cl)c(C(O)c2ccc(F)c(-c3ncnc4cc(N5CCOCC5)ccc34)c2)c1 (stereo not drawn) [Example 22] displays pKi of > 5.00

====

Provide the recorded IC50 for the entries that follow.
# system-name: DNA-PK (Homo sapiens (Human))
# assay: DNA-PK assay (biochemical), flashplate 33P-ATP kinase assay
# condition-label: biochemical DNA-PK assay

# compound O=C1CCCN1c1nccnc1C(O)c1ccc(F)c(-c2ncnc3cc(N4CCOCC4)ccc23)c1 (stereo not shown) [Example 425] ; its IC50 = > 30 nM

According to the records, this compound Cn1cnc2ccnc(C(O)c3ccc(F)c(-c4ncnc5cc(N6CCOCC6)ccc45)c3)c21 (stereo not shown) [Example 461] displays IC50 of < 3 nM

For record Cn1c(C(O)c2cc(-c3ncnc4cc(N5CCOCC5)ccc34)c(F)cc2F)cccc1=O (stereo not shown) [Example 381] the listed IC50 is < 3 nM

response.value for Cn1c(C(O)c2cc(-c3ncnc4cc(N5CCOCC5)ccc34)c(F)cc2Cl)cccc1=O (stereo not shown) [Example 383] (field: IC50) = < 3 nM

Value of measured IC50 for the entry Cc1nccnc1C(O)c1cc(-c2ncnc3cc(N4CCOCC4)sc23)c(F)cc1Cl (stereo not shown) [Example 264] : < 3 nM

Value of IC50 reported for the compound COc1nccnc1C(O)c1cc(-c2ncnc3cc(N4CCOCC4)ccc23)c(F)cc1F (stereo not shown) [Example 454] is < 3 nM

The compound CNC(=O)C(c1ccc(F)c(-c2ncnc3cc(N4CCOCC4)ccc23)c1)c1ncccc1Cl (stereo not shown) [Example 230] showed IC50 equal to 7 to 30 nM

Item: Cn1c(C(O)c2cc(-c3ncnc4cc(N5CCOCC5)ccc34)c(F)cc2F)cccc1=O (stereo not shown) [Example 436] | IC50: 3 to 7 nM

Consider OC(c1cc(-c2ncnc3cc(N4CCOCC4)ccc23)c(F)cc1Cl)c1ncnc2ccoc12 (stereo not shown) [Example 441] . Its measured IC50 is < 3 nM

Recorded result, NC(=O)C(c1ccc(F)c(-c2ncnc3cc(N4CCOCC4)ccc23)c1)c1ncnn2cccc12 (stereo not shown) [Example 299] , IC50: 7 to 30 nM

So for OC(c1ccc(F)c(-c2ncnc3cc(N4CCOCC4)ccc23)c1)c1ncccc1Br (stereo not shown) [Example 478] , the logged IC50 turned out to be < 3 nM

Reported IC50 ( COc1nccnc1C(O)c1cc(-c2ncnc3cc(N4CCOCC4)cnc23)c(F)cc1Cl (stereo not shown) [Example 232] ) = 7 to 30 nM

Note to self: IC50 recorded for COc1nccnc1[C@@H](O)c1cc(-c2ncnc3cc(N4CCOCC4)ccc23)c(F)cc1Cl [Example 456] was < 3 nM

Reported IC50 of OC(c1cc(-c2ncnc3cc(N4CCOCC4)ccc23)c(F)cc1F)c1ncnc2ccsc12 (stereo not shown) [Example 439] : < 3 nM

Entry Cc1nccnc1C(O)c1ccc(F)c(-c2ncnc3cc(N4CCOCC4)cnc23)c1 (stereo not shown) [Example 237] ; IC50 = < 3 nM

The compound identified as Cc1cnc(C(C(N)=O)c2cc(-c3ncnc4cc(N5CCOCC5)ccc34)c(F)cc2Cl)c(C)n1 (stereo not shown) [Example 301] registered its IC50 at 7 to 30 nM

====

Please respond with reported pIC50 for every item in the list.
# system-name: DNA-PK (Homo sapiens (Human))
# assay: DNA-PK assay (biochemical), flashplate 33P-ATP kinase assay
# condition-label: biochemical DNA-PK assay
pIC50: −log10 of the molar value.

According to the records, this compound COc1nccnc1C(O)c1cc(-c2ncnc3cc(N4CCOCC4)ccc23)c(F)cc1Cl (stereo not shown) [Example 468] displays pIC50 of > 8.52

Form field pIC50, entry Cc1nccnc1/C(C(=O)O)=C1/C=CC(=O)C(c2ncnc3cc(N4CCOCC4)ccc23)=C1 [Example 331] : 7.52 to 8.15

Lab book: pIC50 of O=c1[nH]nc(C(O)c2ccc(F)c(-c3ncnc4cc(N5CCOCC5)ccc34)c2)c2sccc12 (stereo not shown) [Example 337] noted as > 8.52

The compound listed as Cn1nc(C(C(N)=O)c2ccc(F)c(-c3ncnc4cc(N5CCOCC5)ccc34)c2)ccc1=O (stereo not shown) [Example 317] has a reported pIC50 of < 7.52

Noted for COc1ccc(C(O)c2cc(-c3ncnc4cc(N5CCOCC5)ccc34)ccc2Cl)nn1 (stereo not shown) [Example 458] : its pIC50 reads > 8.52

Value of measured pIC50 for the entry COc1nccnc1C(O)c1cc(-c2ncnc3cc(N4CCOCC4)cc(F)c23)c(F)cc1Cl (stereo not shown) [Example 249] : > 8.52

In plain terms, Cc1nccnc1C(C(N)=O)c1cc(-c2ncnc3cc(N4CCOCC4)ccc23)c(F)cc1F (stereo not shown) [Example 329] has a documented pIC50 of 7.52 to 8.15

OC(c1ccc(F)c(-c2ncnc3cc(N4CCOCC4)ccc23)c1)c1ncnc2sccc12 (stereo not shown) [Example 437] has a reported pIC50 of > 8.52

So for Cc1nccnc1C(O)c1cc(-c2ncnc3cc(N4CCOCC4)cnc23)c(F)cc1Cl (stereo not shown) [Example 240] , the logged pIC50 turned out to be 7.52 to 8.15

Record summary for Cc1nccnc1[C@@H](O)c1ccc(F)c(-c2ncnc3cc(N4CCOCC4)cnc23)c1 [Example 233] : reported pIC50 = 7.52 to 8.15

Consider COc1nccnc1C(O)c1ccc(F)c(-c2ncnc3cc(N4CCOCC4)cc(F)c23)c1 (single isomer, unassigned) [Example 252] . Its measured pIC50 is > 8.52

Form: compound = Cn1cnc2ncnc(C(O)c3cc(-c4ncnc5cc(N6CCOCC6)ccc45)c(F)cc3F)c21 (stereo not shown) [Example 386] ; pIC50 = 8.15 to 8.52

// pIC50 lookup, compound = COc1nccnc1[C@@H](O)c1cc(-c2ncnc3cc(N4CCOCC4)ccc23)ccc1Cl [Example 411] , result: 8.15 to 8.52

Just so you know, measured pIC50 for COc1ccc(C(O)c2ccc(F)c(-c3ncnc4cc(N5CCOCC5)cc(F)c34)c2)nn1 (stereo not shown) [Example 255] came out at 7.52 to 8.15

Value of pIC50 reported for the compound OC(c1cc(-c2ncnc3cc(N4CCOCC4)ccc23)ccc1Cl)c1ncnc2occc12 (stereo not shown) [Example 416] is 8.15 to 8.52

Sure, the documented pIC50 for OC(c1cc(-c2ncnc3cc(N4CCOCC4)ccc23)c(F)cc1Cl)c1nccn2ccnc12 (single isomer, unassigned) [Example 395] is 7.52 to 8.15

// provenance: patent US9732094B2
